All figures here come from paper PMC9324933.

Test system: A2780 cells
test.description: Viability of A2780 cells
Assay type: cell-based
run.parameters: read-out: IC50 A2780 cells; human ovarian cancer cells, 48 h, MTT
pIC50: −log10 of the molar value.
measurement.type: pIC50

Prompt line: Query: pIC50; subject: `[Fe+2].c1cc[cH-]c1.c1cc[cH-]c1`
Response line: < 4.30
